- target or system: SP9030 (human leukotriene receptor, SEQ ID NO: 2) (Homo sapiens)
- Construct: The ORF of SP9030 was cloned in the expression vector pCR3.1 (pCR3.1-SP9030); expressed in transfected cells; host or cells: COS-7 cells (membranes)
- Sequence (Q9NPC1 whole entry): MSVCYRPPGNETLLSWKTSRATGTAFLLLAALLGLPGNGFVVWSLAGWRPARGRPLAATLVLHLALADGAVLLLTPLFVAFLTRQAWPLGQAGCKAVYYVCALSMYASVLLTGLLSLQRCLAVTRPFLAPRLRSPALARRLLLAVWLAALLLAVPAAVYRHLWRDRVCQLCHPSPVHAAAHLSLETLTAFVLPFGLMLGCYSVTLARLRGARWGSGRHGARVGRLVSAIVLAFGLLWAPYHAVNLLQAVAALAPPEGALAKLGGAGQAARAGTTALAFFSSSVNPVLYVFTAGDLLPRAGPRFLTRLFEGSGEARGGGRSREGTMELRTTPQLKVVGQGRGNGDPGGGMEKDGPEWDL
- protocol summary: Radioligand competition assay using ^3H-LTB4 as the label on membranes of COS-7 cells transfected with SP9030 cDNA
- Type: binding
- run conditions: read-out: Ki (competition with ^3H-LTB4); 0.25 nM ^3H-LTB4; Ki=EC50/(1+[^3H-LTB4]/Kd), Kd […]
- Protocol: COS-7 cells, grown in DMEM/10% FCS until 80-90% confluence, were transfected with SuperFect agent (Giagene) at 20 μg DNA/150 mm plate. Forty eight hours after transfection, medium was changed to Opti-MEM or DMEM/Opti-MEM(1:1)/5% FCS. Cells were harvested 72 hours after transfection and membranes from the cells were prepared as follows. […] The protein concentration of the membrane preparations was determined with the BCA agents (Pierce). […]
recorded endpoint: Ki (nM)
Please give a number only; it is taken to be in nM.

Looking up CC/C=C\C/C=C\C[C@@H](O)/C=C/C=C/C=C\[C@@H](O)CCCC(=O)O , I found its Ki recorded as 8.6

----------
- target or system: SP9030 (human leukotriene receptor, SEQ ID NO: 2) (Homo sapiens)
- Construct: The ORF of SP9030 was cloned in the expression vector pCR3.1 (pCR3.1-SP9030); expressed in transfected cells; host or cells: COS-7 cells (membranes)
- protocol summary: Radioligand competition assay using ^3H-LTB4 as the label on membranes of COS-7 cells transfected with SP9030 cDNA
- Assay type: binding
- run conditions: read-out: Ki (competition with ^3H-LTB4)
recorded endpoint: Ki (µM)
Please give a number only; it is taken to be in µM.

Considering CCCCC[C@H](O)/C=C/C=C\C=C\C=C\[C@@H](O)[C@@H](O)CCCC(=O)O , its Ki with SP9030 (human leukotriene receptor, SEQ ID NO: 2) (Homo sapiens) was recorded as 0.112
